Target: T1, human IL-6 (human, UniProt P05231 30-212)
T1 construct: also called interleukin-6
T1 sequence (P05231 30-212 limits assumed): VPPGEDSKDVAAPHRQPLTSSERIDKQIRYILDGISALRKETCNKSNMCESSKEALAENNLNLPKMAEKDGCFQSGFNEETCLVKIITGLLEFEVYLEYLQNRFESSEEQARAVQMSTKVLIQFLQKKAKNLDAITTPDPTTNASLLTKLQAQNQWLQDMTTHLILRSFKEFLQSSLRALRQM
Experiment: SPR (Biacore T200), purified antibody captured on Protein A, IL-6 flowed over, 37 C
Measured attribute: koff (s⁻¹)
Please state the figure in s⁻¹; there is no need to write the unit.

{"columns": ["Binder", "Result"],
 "data": [
  ["anti-IL-6 antibody, heavy chain G66D / light chain WT (antibody, human IgG1, V domains shown, Derived as m2; Engineered human IgG1) VH: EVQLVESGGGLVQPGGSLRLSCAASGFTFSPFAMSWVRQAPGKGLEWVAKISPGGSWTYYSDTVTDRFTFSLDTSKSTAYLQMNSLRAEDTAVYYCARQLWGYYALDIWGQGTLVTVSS VL: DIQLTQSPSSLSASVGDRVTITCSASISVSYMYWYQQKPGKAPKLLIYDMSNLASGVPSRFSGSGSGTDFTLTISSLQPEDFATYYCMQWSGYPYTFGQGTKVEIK", 0.000178],
  ["anti-IL-6 antibody, heavy chain WT / light chain WT (antibody, human IgG1, V domains shown, Full antibody on an engineered human IgG1 framework, Fc with L234A, L235A, G237A and L443C (EU numbering), expressed in Expi293 cells; also called wild-type; parent molecule) VH: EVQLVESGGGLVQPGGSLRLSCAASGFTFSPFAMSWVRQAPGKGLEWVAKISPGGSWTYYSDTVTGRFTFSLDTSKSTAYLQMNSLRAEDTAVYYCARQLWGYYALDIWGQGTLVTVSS VL: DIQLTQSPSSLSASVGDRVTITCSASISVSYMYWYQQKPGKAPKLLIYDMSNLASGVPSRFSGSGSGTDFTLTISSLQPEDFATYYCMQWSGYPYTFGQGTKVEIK", 0.000128]
]}

// below: koff requested for another binder
q: Which koff is reported for this binder? anti-IL-6 antibody, heavy chain T63K, G66D / light chain WT (antibody, human IgG1, V domains shown, Derived as m2; Engineered human IgG1) VH: EVQLVESGGGLVQPGGSLRLSCAASGFTFSPFAMSWVRQAPGKGLEWVAKISPGGSWTYYSDKVTDRFTFSLDTSKSTAYLQMNSLRAEDTAVYYCARQLWGYYALDIWGQGTLVTVSS VL: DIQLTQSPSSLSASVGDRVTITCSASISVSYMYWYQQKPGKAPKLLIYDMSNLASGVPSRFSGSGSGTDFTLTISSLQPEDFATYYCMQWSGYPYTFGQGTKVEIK
a: 0.000235
